// reported IC80 (µg/ml) with constrains per item
- assayed.target: HIV Env of isolate 0260.v5.c36 (clade A) (HIV)
- assay.protocol: cell-based or functional assay
experimental.endpoint: IC80 (µg/ml) with constrains

| binder | experimental.endpoint | experimental.result |
| --- | --- | --- |
| ePGDM5 (antibody, V domains shown) VH: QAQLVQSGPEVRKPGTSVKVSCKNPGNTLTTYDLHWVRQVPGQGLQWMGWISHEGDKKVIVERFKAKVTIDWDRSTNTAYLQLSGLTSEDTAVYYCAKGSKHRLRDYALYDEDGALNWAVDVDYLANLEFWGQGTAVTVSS VL: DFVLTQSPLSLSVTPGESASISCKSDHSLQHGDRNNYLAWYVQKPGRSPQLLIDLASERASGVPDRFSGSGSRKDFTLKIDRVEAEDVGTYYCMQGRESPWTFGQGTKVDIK | IC80 (µg/ml) with constrains | 0.084 µg/mL |
| ePGDM9 (antibody, V domains shown) VH: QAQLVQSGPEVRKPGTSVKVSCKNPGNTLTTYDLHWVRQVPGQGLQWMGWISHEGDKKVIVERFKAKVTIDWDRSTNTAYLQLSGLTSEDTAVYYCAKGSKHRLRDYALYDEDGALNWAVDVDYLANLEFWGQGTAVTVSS VL: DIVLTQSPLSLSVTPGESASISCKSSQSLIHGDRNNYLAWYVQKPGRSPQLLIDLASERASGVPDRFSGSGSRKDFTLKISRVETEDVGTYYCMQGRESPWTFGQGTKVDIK | IC80 (µg/ml) with constrains | 0.073 µg/mL |
| ePGDM13 (antibody, V domains shown) VH: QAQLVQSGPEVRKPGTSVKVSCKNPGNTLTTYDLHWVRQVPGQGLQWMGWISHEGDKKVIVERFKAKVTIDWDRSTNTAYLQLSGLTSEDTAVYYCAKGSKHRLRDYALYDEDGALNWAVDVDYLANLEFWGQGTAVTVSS VL: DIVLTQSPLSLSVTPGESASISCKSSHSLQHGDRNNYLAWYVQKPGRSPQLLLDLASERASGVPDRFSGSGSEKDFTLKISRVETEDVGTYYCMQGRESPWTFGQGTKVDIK | IC80 (µg/ml) with constrains | 0.098 µg/mL |
| PGDM1400 (antibody, V domains shown) VH: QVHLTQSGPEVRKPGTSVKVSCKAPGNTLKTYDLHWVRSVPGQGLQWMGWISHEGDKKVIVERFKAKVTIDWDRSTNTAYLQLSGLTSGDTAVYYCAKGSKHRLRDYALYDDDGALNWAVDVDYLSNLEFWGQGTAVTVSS VL: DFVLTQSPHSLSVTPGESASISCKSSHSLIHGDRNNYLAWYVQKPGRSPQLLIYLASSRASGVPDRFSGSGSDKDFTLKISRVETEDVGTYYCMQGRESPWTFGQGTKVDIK | IC80 (µg/ml) with constrains | 0.14 µg/mL |
